Reference source: ChEMBL document CHEMBL5385889

Test protocol: Octanol/water partition coefficient, log P of the compound by LC-MS analysis
Assay type: physicochemical
Protocol conditions: read-out: logP
Endpoint name: logP

Below, 2 molecules whose answers are already recorded.
Query string: For the molecule CCCCn1cc(C(=O)NC2(c3ccccc3)CCCCC2)c(=O)c2ccc(N3CCOCC3)cc21 , report logP.
Result string: 4.94

Query string: For the molecule CCCCn1cc(C(=O)NCc2ccccc2)c(=O)c2cc(F)c(N3CCOCC3)c(Cl)c21 , report logP.
Result string: 5.01

More entries:
Query string: For the molecule CCCCn1cc(C(=O)NC2(c3ccccc3)CCCCC2)c(=O)c2c(F)cc(N3CCOCC3)cc21 , report logP.
Result string: 4.97
